Hello, the source for this data is patent US20110178053A1, in case you need it.

- measured_target: Pim-1 (Homo sapiens)
- Construct: His6-labelled recombinant full-length human Pim-1, Pim-2 or Pim-3 protein; His6; made in house
- Sequence (P11309 whole entry): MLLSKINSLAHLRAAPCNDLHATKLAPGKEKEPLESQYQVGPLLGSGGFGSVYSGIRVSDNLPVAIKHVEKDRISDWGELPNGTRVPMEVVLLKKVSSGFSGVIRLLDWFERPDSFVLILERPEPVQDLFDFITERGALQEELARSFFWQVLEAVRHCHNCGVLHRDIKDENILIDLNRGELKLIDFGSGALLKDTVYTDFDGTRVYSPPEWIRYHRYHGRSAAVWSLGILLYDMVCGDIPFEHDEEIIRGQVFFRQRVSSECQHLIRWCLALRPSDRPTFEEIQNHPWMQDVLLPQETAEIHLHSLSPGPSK
- measurement_protocol: TR-FRET assay, Pim-1 kinase (phosphorylation of Bad Ser112)
- Format: biochemical
- assay_context: TR-FRET; ATP 40 μM; read-out: IC50 Pim1
Here, each record is paired with measured IC50 data.

Worked cases, IC50 given:
| item_smiles | result |
| --- | --- |
| Fc1cnc2[nH]c3cnc(-c4cccnc4)cc3c2c1-c1cccnc1 | 100 to 1000 nM |
| COc1ccncc1-c1cc2c(cn1)[nH]c1ncc(F)cc12 | 100 to 1000 nM |
| COc1ccc(-c2c(F)cnc3[nH]c4cnc(-c5cccnc5)cc4c23)cn1 | 100 to 1000 nM |
| O=C(O)c1cnc2[nH]c3cnc(-c4cccnc4)cc3c2c1 | 100 to 1000 nM |

Next:
Quick one: give measured IC50 for Fc1cnc2[nH]c3cnc(-c4cccnc4)cc3c2c1Cl 100 to 1000 nM

---

Here, each record is paired with measured pIC50 data.
- System: MOLM-13
- measurement_protocol: Cell viability assay (CellTiter-Blue), MOLM-13
- Type: cell-based
- assay_context: Homo sapiens; MOLM-13 cells; cell proliferation/viability; read-out: IC50 MOLM-13 μM (myeloma)
pIC50: −log10 of the molar value.

Worked cases, pIC50 given:
| compound | pIC50 |
| --- | --- |
| Cn1cc(-c2cc3c(cn2)[nH]c2ncccc23)cn1 [Example 39] | 5.30 to 6.00 |
| CCN(CC)CCOc1ccc(-c2c(F)cnc3[nH]c4cnc(-c5cccnc5)cc4c23)cc1 [Example 100] | 6.00 to 7.00 |
| CCN(CC)CCn1cc(-c2cnc3[nH]c4cnc(-c5cccnc5)cc4c3c2)cn1 [Example 123] | 7.00 to 9.00 |

Quick one: give measured pIC50 for Fc1cnc2[nH]c3cnc(-c4cccnc4)cc3c2c1-c1ccc(OCCN2CCCC2)cc1 [Example 97] 6.00 to 7.00

Quick one: give measured pIC50 for COc1cnc2[nH]c3cnc(-c4cccnc4)cc3c2c1-c1ccc(NS(C)(=O)=O)cc1 [Example 44] 7.00 to 9.00

Quick one: give measured pIC50 for c1cncc(-c2cc3c(cn2)[nH]c2ncc(-c4ccc(N5CCNCC5)cc4)cc23)c1 [Example 130] 7.00 to 9.00

Quick one: give measured pIC50 for Cc1n[nH]c(C)c1-c1cnc2[nH]c3cnc(-c4cccnc4)cc3c2c1 [Example 120] 6.00 to 7.00

Quick one: give measured pIC50 for COc1cnc2[nH]c3cnc(-c4cccnc4)cc3c2c1 [Example 7] 6.00 to 7.00

Quick one: give measured pIC50 for CCN(CC)C(=O)c1cccc(-c2cnc3[nH]c4cnc(-c5cccnc5)cc4c3c2)c1 [Example 119] 6.00 to 7.00

Quick one: give measured pIC50 for CC(COc1ccc(-c2c(F)cnc3[nH]c4cnc(-c5cccnc5)cc4c23)cc1)CN(C)C (stereo not drawn) [Example 98] 6.00 to 7.00

Quick one: give measured pIC50 for Fc1cnc2[nH]c3cnc(-c4cccnc4)cc3c2c1N1CCOCC1 [Example 33] 6.00 to 7.00

Quick one: give measured pIC50 for CCN1CCCC1Cn1cc(-c2cnc3[nH]c4cnc(-c5cccnc5)cc4c3c2)cn1 (stereo not drawn) [Example 128] 7.00 to 9.00
